Source listed as patent US8426420B2.

TARGET OR TEST SYSTEM: human P2Y12 receptor (Homo sapiens, UniProt Q9H244)
Sequence (Q9H244 whole entry): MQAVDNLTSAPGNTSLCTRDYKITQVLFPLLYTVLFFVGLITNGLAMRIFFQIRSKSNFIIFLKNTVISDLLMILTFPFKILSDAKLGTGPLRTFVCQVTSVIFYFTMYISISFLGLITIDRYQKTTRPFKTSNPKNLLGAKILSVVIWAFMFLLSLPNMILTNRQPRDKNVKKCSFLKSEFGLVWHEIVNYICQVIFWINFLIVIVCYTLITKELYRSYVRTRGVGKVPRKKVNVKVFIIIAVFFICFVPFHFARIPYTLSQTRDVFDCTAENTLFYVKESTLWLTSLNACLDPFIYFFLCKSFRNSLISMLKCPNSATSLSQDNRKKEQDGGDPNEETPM
ASSAY REMARKS: Human P2Y12 recombinant cell membrane binding assay with 33P 2MeS-ADP
CONDITION NOTES: competition against 33P 2MeS-ADP, membranes of CHO cells with recombinant human P2Y12 receptor
Classify: Y when IC50 is strictly less than 0.04 µM; N when IC50 is not.

COMPOUND	ASSIGNED CLASS
CCOC(=O)N1CCN(C(=O)[C@H](CCC(=O)OCc2ccccc2)NC(=O)c2cc(OCC(=O)N3CCC[C@H]3C(=O)NC3CCC3)n(-c3ccccc3)n2)CC1	Y
COC(=O)CC[C@H](NC(=O)c1cc(OCC(=O)N2CCC[C@H]2C(=O)NC2CCC2)n(-c2ccccc2)n1)C(=O)N1CCN(C(=O)OC2CCC2)CC1	Y
CCCCOC(=O)N1CCN(C(=O)[C@H](CCCOC(=O)C(C)C)NC(=O)c2cc(OCC(=O)N3CCC[C@H]3C(=O)NC3CCC3)n(-c3ccccc3)n2)CC1	Y
CCCNC(=O)[C@@H]1CCCN1C(=O)COc1cc(C(=O)N[C@@H](CCC(=O)O)C(=O)N2CCN(C(=O)OCC)CC2)nn1-c1ccccc1	N
CCOC(=O)N1CCN(C(=O)[C@H](CCC(=O)OC2CCCCC2)NC(=O)c2cc(OCC(=O)N3CCC[C@H]3C(=O)NC3CCC3)n(-c3ccccc3)n2)CC1	N
CCCOC(=O)N1CCN(C(=O)[C@H](CCC(=O)O)NC(=O)c2cc(OCC(=O)N3CCC[C@H]3C(=O)NC3CCC3)n(-c3ccccc3)n2)CC1	Y
CCCCOC(=O)N1CCN(C(=O)[C@H](CCC(=O)O)NC(=O)c2cc(OCC(=O)N3CCC[C@H]3C(=O)NCC(F)(F)F)n(-c3ccccc3)n2)CC1	Y
CCOC(=O)N1CCN(C(=O)[C@H](CCC(=O)OCC2CCCO2)NC(=O)c2cc(OCC(=O)N3CCC[C@H]3C(=O)NC3CCC3)n(-c3ccccc3)n2)CC1 (some centres unmarked)	N
CCCOC(=O)N1CCN(C(=O)CNC(=O)c2cc(OCC(=O)N3CCC[C@H]3C(=O)NC3CCC3)n(-c3ccccc3)n2)CC1	N
CCOC(=O)N1CCN(C(=O)[C@H](CCC(=O)O)NC(=O)c2cc(OCC(=O)N3CCC[C@H]3C(=O)NC(C)(C)C)n(-c3ccccc3)n2)CC1	N
CCCCOC(=O)N1CCN(C(=O)[C@H](CC)NC(=O)c2cc(OCC(=O)N3CCC[C@H]3C(=O)NC3CCC3)n(-c3ccccc3)n2)CC1	Y
CCOC(=O)N1CCN(C(=O)[C@H](CCNC(=O)C2CC2(F)F)NC(=O)c2cc(OCC(=O)N3CCC[C@H]3C(=O)NC3CCC3)n(-c3ccccc3)n2)CC1 (some centres unmarked)	N
CCOC(=O)N1CCN(C(=O)[C@H](CC(=O)O)NC(=O)c2cc(OCC(=O)N3CCC[C@H]3C(=O)NCC(F)(F)F)n(-c3ccccc3)n2)CC1	N
CCCCOC(=O)N1CCN(C(=O)[C@H](CCOC)NC(=O)c2cc(OCC(=O)N3CCC[C@H]3C(=O)NC3CCC3)n(-c3ccccc3)n2)CC1	Y
CCCCOC(=O)N1CCN(C(=O)C(NC(=O)c2cc(OCC(=O)N3CCC[C@H]3C(=O)NC3CCC3)n(-c3ccccc3)n2)C(C)F)CC1 (some centres unmarked)	N
CCOC(=O)N1CCN(C(=O)[C@H](CCC(=O)OCC2CC2)NC(=O)c2cc(OCC(=O)N3CCC[C@H]3C(=O)NC3CCC3)n(-c3ccccc3)n2)CC1	N
CCCCOC(=O)N1CCN(C(=O)[C@H](COCC)NC(=O)c2cc(OCC(=O)N3CCC[C@H]3C(=O)NC3CCC3)n(-c3ccccc3)n2)CC1	Y
CCCOC(=O)N1CCN(C(=O)[C@@H](C)NC(=O)c2cc(OCC(=O)N3CCC[C@H]3C(=O)NC3CCC3)n(-c3ccccc3)n2)CC1	N
O=C(O)CC[C@H](NC(=O)c1cc(OCC(=O)N2CCC[C@H]2C(=O)NC2CCC2)n(-c2ccccc2)n1)C(=O)N1CCC(C(=O)c2cccc(Cl)c2)CC1	N
CCCCOC(=O)N1CCN(C(=O)CNC(=O)c2cc(O[C@H](C)C(=O)N3CCC[C@H]3C(=O)NC3CCC3)n(-c3ccccc3)n2)CC1	Y
CCOC(=O)N1CCN(C(=O)[C@H](CCC(=O)O)NC(=O)c2cc(OCC(=O)N3CCC[C@H]3C(=O)NCC3CC3)n(-c3ccccc3)n2)[C@H](C)C1	Y
CCCCOC(=O)N1CCN(C(=O)[C@@H](NC(=O)c2cc(OCC(=O)N3CCC[C@H]3C(=O)NC3CCC3)n(-c3ccccc3)n2)C(C)C)CC1	Y
CCOC(=O)N1CCN(C(=O)[C@H](CCNC(=O)C(C)(C)C)NC(=O)c2cc(OCC(=O)N3CCC[C@H]3C(=O)NC3CCC3)n(-c3ccccc3)n2)CC1	N

###

# Lookup of reported IC50 keyed by entry
TARGET OR TEST SYSTEM: human P2Y12 receptor (Homo sapiens, UniProt Q9H244)
ASSAY REMARKS: Human P2Y12 recombinant cell membrane binding assay with 33P 2MeS-ADP
CONDITION NOTES: competition against 33P 2MeS-ADP, membranes of CHO cells with recombinant human P2Y12 receptor
METRIC: IC50

COMPOUND	TARGET OR TEST SYSTEM	METRIC	READING
CCOC(=O)N1CCN(C(=O)[C@H](CCO)NC(=O)c2cc(OCC(=O)N3CCC[C@H]3C(=O)NC3CCC3)n(-c3ccccc3)n2)CC1	human P2Y12 receptor (Homo sapiens, UniProt Q9H244)	IC50	59 nM
CCCCOC(=O)N1CCN(C(=O)[C@H](CCC(=O)O)NC(=O)c2cc(OCC(=O)N3CCC[C@H]3C(=O)NCC(F)F)n(-c3ccccc3)n2)CC1	human P2Y12 receptor (Homo sapiens, UniProt Q9H244)	IC50	10 nM
O=C(NCC(=O)N1CCN(C(=O)OC2CCCC2)CC1)c1cc(OCC(=O)N2CCC[C@H]2C(=O)NC2CCC2)n(-c2ccccc2)n1	human P2Y12 receptor (Homo sapiens, UniProt Q9H244)	IC50	99 nM
CCOC(=O)N1CCN(C(=O)[C@H](CCC(=O)O)NC(=O)c2cc(OCC(=O)N3CCC[C@H]3C(=O)NC3CC3)n(-c3cccc(F)c3)n2)CC1	human P2Y12 receptor (Homo sapiens, UniProt Q9H244)	IC50	192 nM
CCOC(=O)N1CCN(C(=O)[C@H](CCC(=O)O)NC(=O)c2cc(O[C@H](C)C(=O)N3CCC[C@H]3C(=O)NCC(F)(F)F)n(-c3ccccc3)n2)CC1	human P2Y12 receptor (Homo sapiens, UniProt Q9H244)	IC50	55 nM
CCOC(=O)N1CCN(C(=O)[C@H](CCC(=O)O)NC(=O)c2cc(OCC(=O)N3CCC[C@H]3C(=O)NC3CC3)n(-c3ccccc3)n2)CC1	human P2Y12 receptor (Homo sapiens, UniProt Q9H244)	IC50	270 nM
CCOC(=O)N1CCN(C(=O)[C@H](CCC(=O)O)NC(=O)c2cc(OC(C)C(=O)N3CCC[C@H]3C(=O)NCC(F)(F)F)n(-c3ccccc3)n2)CC1 (stereo partly drawn)	human P2Y12 receptor (Homo sapiens, UniProt Q9H244)	IC50	129 nM
CCOC(=O)N1CCN(C(=O)[C@H](CCC(=O)O)NC(=O)c2cc(O[C@H](C)C(=O)N3CCC[C@H]3C(=O)NCC3CC3)n(-c3ccccc3)n2)CC1	human P2Y12 receptor (Homo sapiens, UniProt Q9H244)	IC50	41 nM
CCCCOC(=O)N1CCN(C(=O)[C@H](CCC(=O)O)NC(=O)c2cc(OCC(=O)N3CCC[C@H]3C(=O)NCCF)n(-c3ccccc3)n2)CC1	human P2Y12 receptor (Homo sapiens, UniProt Q9H244)	IC50	12 nM
CCOC(=O)N1CCN(C(=O)[C@H](CCC(=O)OC2CCCC2)NC(=O)c2cc(OCC(=O)N3CCC[C@H]3C(=O)NC3CCC3)n(-c3ccccc3)n2)CC1	human P2Y12 receptor (Homo sapiens, UniProt Q9H244)	IC50	59 nM
CCCCOC(=O)N1CCN(C(=O)[C@H](C)NC(=O)c2cc(OCC(=O)N3CCC[C@H]3C(=O)NC3CCC3)n(-c3ccccc3)n2)CC1	human P2Y12 receptor (Homo sapiens, UniProt Q9H244)	IC50	16 nM
CCOC(=O)N1CCN(C(=O)[C@H](CNS(C)(=O)=O)NC(=O)c2cc(OCC(=O)N3CCC[C@H]3C(=O)NC3CCC3)n(-c3ccccc3)n2)CC1	human P2Y12 receptor (Homo sapiens, UniProt Q9H244)	IC50	125 nM

###

System: human platelet rich plasma
ASSAY REMARKS: Inhibition of human platelet aggregation, 96-well assay
Assay type: cell-based
CONDITION NOTES: ADP-induced aggregation, human platelet rich plasma, 96-well plates, AUC of absorbance over 20 minutes
pIC50: −log10 of the molar value.
METRIC: pIC50

>>> df
                                     smiles  reading
0  CCOC(=O)N1CCN(C(=O)[C@H](CC(=O)O)NC(=O)c2cc(OCC(=O)N3CCC[C@H]3C(=O)NCC3CC3)n(-c3cccc(F)c3)n2)CC1     6.80
1  CCOC(=O)N1CCN(C(=O)[C@H](CCC(=O)O)NC(=O)c2cc(OCC(=O)N3CC(F)(F)C[C@H]3C(=O)NC3CC3)n(-c3ccccc3)n2)CC1     6.47
2  CCOC(=O)N1CCN(C(=O)[C@H](CCC(=O)O)NC(=O)c2cc(OCC(=O)N3CC(F)(F)C[C@H]3C(=O)NCC3CC3)n(-c3ccccc3)n2)CC1     7.10
3  CCOC(=O)N1CCN(C(=O)[C@H](CCC(=O)O)NC(=O)c2cc(OCC(=O)N3CCC[C@H]3C(=O)NC)n(-c3ccccc3)n2)CC1     5.84
